tested on: NCI-H226 lung; assay: NCI tumour cell line growth inhibition, 48 h
Listing of recorded TGI by entry.

Sure, the documented TGI for C=C(C)C1CC[C@@](C)(O)[C@H](C#N)C1 (stereo partly specified) is > 100 µM

Sure, the documented TGI for ICC1CCCO1 (stereo unspecified) is > 100 µM

Sure, the documented TGI for CC(Br)CN1CCOCC1 (stereo unspecified) is > 100 µM

Sure, the documented TGI for `COc1ccc(Cn2cc(COc3cc(/C=C/C(=O)c4cc(OC)c(OC)c(OC)c4)ccc3OC)nn2)cc1` is 83.1 µM

Sure, the documented TGI for `Cc1cccc(C)c1NC(=O)CCC(=O)NC(N)=NC#N` is > 100 µM

Sure, the documented TGI for CC(C)(C)[Si](C)(C)OCC1OC(n2cnc3c(=O)[nH]cnc32)CC1O (stereo unspecified) is > 100 µM
